Cited source for all entries: patent US20210128561A1

Tested Target: human wildtype MrgX2 (Homo sapiens)
Sequence (Q96LB1 whole entry): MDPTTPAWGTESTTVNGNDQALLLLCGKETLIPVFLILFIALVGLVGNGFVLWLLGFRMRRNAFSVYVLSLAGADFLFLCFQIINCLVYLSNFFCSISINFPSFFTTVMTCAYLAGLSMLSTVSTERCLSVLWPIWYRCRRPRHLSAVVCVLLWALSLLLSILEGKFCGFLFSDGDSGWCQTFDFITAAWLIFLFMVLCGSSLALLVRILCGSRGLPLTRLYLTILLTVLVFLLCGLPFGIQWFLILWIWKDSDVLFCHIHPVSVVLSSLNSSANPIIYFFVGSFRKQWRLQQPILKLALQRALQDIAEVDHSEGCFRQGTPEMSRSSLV
Test Description: calcium assay (LN229 cells recombinantly expressing human wildtype MrgX2)
pIC50: −log10 of the molar value.
Measurement Label: pIC50

Use these answered entries as a reference point.
CC(C)c1cc(=S)n2c(nc3ccccc32)[nH]1 : 8.40
Cc1[nH]c2nc3ccccc3n2c(=O)c1C : 5.54
CCc1c(CC(C)C)[nH]c2nc3ccccc3n2c1=O : 7.29
CCc1c(C(C)C)[nH]c2nc3ccc(C)cc3n2c1=O : 9.45
CCc1c(C(C)C)[nH]c2nc3ccccc3n2c1=O : 8.61

a: CCCc1c(C)[nH]c2nc3ccccc3n2c1=O
b: CCc1c(C(C)C)[nH]c2nc3c(C)cccc3n2c1=O
Input line: Choose between a and b : whose measured pIC50 value is numerically larger? Field: selected label. Fill in the label of the entry you choose.
Output line: b
(b: 7.27, a: 6.17)
